Origin of values: patent US20060105967A1

target.or.test.system: TNFα (Homo sapiens)
Sequence (P01375 77-233 limits assumed, species assumed): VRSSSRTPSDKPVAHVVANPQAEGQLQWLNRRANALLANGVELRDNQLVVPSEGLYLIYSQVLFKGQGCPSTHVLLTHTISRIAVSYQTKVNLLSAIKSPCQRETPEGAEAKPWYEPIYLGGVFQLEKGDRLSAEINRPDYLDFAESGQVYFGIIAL
measurement.description: L929 cell proliferation/cytotoxicity assay, TNFα activity assay
value.type: pIC50
Answers are plain numbers, as −log10 of the molar value.

compound: C[C@@H]1O[C@@H](Oc2c(-c3ccc(O)c(O)c3)oc3cc(O)cc(O)c3c2=O)[C@H](O)[C@H](O)[C@H]1O
pIC50: 3.79

Next, consider the following compound.
Incoming: GET /values?readout=pIC50&item= O=c1c(O[C@@H]2O[C@H](CO)[C@@H](O)[C@H](O)[C@H]2O)c(-c2ccc(O)c(O)c2)oc2cc(O)cc(O)c12 [quercetin-3-D-glucoside]
Outgoing: 4.02
